Test system: DG-75 Burkitt lymphoma cell line (EBV−, chemoresistant)
TEST CONDITIONS: 1 μM, 48 h
Property: DG-75 Cell Viability % 1 μM; scope: individual compounds
Give the number; % is assumed, so skip it.

Record lookup: for DG-75 Burkitt lymphoma cell line (EBV−, chemoresistant), what DG-75 Cell Viability % 1 μM belongs to O=C1C2C(C(=O)N1c1ccccc1)C1(/C=C/[N+](=O)[O-])c3ccccc3C2(Cl)c2ccccc21 (stereo not drawn) [Compound 16d] ?
13.5

Record lookup: for DG-75 Burkitt lymphoma cell line (EBV−, chemoresistant), what DG-75 Cell Viability % 1 μM belongs to O=C1C2C3c4ccccc4C(/C=C/[N+](=O)[O-])(c4ccccc43)C2C(=O)N1CCCCCCN1C(=O)C2C3c4ccccc4C(/C=C/[N+](=O)[O-])(c4ccccc43)C2C1=O (stereo not drawn) [Compound 15] ?
3.8

Record lookup: for DG-75 Burkitt lymphoma cell line (EBV−, chemoresistant), what DG-75 Cell Viability % 1 μM belongs to C/C(=C\C12c3ccccc3C(c3ccccc31)C1C(=O)OC(=O)C12)[N+](=O)[O-] (stereo not drawn) [Compound 13b] ?
1.1

Record lookup: for DG-75 Burkitt lymphoma cell line (EBV−, chemoresistant), what DG-75 Cell Viability % 1 μM belongs to O=C1C2C3c4ccccc4C(C=C[N+](=O)[O-])(c4ccccc43)C2C(=O)N1c1ccc(Cl)cc1 (stereo not drawn) [Compound 16b] ?
5.5

---
Record lookup: for DG-75 Burkitt lymphoma cell line (EBV−, chemoresistant), what DG-75 Cell Viability % 1 μM belongs to O=C1NC(=O)C2C1C1c3ccccc3C2(/C=C/[N+](=O)[O-])c2ccccc21 (stereo not drawn) [Compound 13g] ?
1.1

* * *

Property: melting point; scope: individual molecules

// solved cases for melting point follow
// melting point lookup, key: CC/C(=C\C12c3ccccc3C(Cl)(c3ccccc31)C1C(=O)N(c3ccccc3)C(=O)C12)[N+](=O)[O-] (centres unmarked) [Compound 17h]
261 to 262 °C

// melting point lookup, key: O=C1C2C3c4ccccc4C(c4ccccc43)C2C(=O)N1c1ccccc1 (centres unmarked) [Compound 21c]
227 to 229 °C

// melting point lookup, key: O=C1NC(=O)C2C1C1c3ccccc3C2(O)c2ccccc21 (centres unmarked) [Compound 21k]
253 to 255 °C

---
// melting point lookup, key: N/N=C/C12c3ccccc3C(c3ccccc31)C1C(=O)NC(=O)C12 (centres unmarked) [Compound 23g]
245 to 247 °C

// melting point lookup, key: O=c1n(-c2ccccc2)c(=O)n2n1C1c3ccccc3C2(/C=C/[N+](=O)[O-])c2ccccc21 [Compound 18]
168 to 169 °C

// melting point lookup, key: O=C1NC(=O)C2C1C1c3ccccc3C2(CC[N+](=O)[O-])c2ccccc21 (centres unmarked) [Compound 14b]
295 to 297 °C

// melting point lookup, key: CCOC(=O)C1C2c3ccccc3C(/C=C/[N+](=O)[O-])(c3ccccc32)C1C(=O)OCC (centres unmarked) [Compound 19f]
151 to 152 °C

// melting point lookup, key: N/N=C/C12c3ccccc3C(Cl)(c3ccccc31)C1C(=O)NC(=O)C12 (centres unmarked) [Compound 23i]
241 to 244 °C

* * *

EXPERIMENTAL DETAILS: HPLC stability study in phosphate buffers
Format: physicochemical
TEST CONDITIONS: pH 9 phosphate buffer, read-out: half-life (t½) at pH 9
Procedure: The HPLC stability studies for compound 16a were performed using a Symmetry® column (C18, 5 µm, 4.6 × 150 mm), detector Waters 2487 Dual Wavelength Absorbance, HPLC pump: Waters 1525 binary and Autosampler: Waters 717 plus (Waters Corporation, Milford, MA, USA). Samples were detected at wavelength of 254 nm. […] Samples of the solution were then analysed over the following 48 h period at selected time intervals (t = 0 min, 5 min, 30 min, 60 min, 90 min, 120 min, 24 h and 48 h).
ASSAY METRIC: half-life at 14.6 µg/mL

// half-life at 14.6 µg/mL lookup, key: O=C1C2C3c4ccccc4C(C=C[N+](=O)[O-])(c4ccccc43)C2C(=O)N1c1ccccc1 (stereo not shown) [Compound 16a]
> 24 h
